Test system: OVCAR-5 ovarian
Assay: NCI-60 one-dose screen, 48 h (100 = growth as untreated, 0 = no growth, -100 = all killed)
Details: 10 µM unless noted
Method: Growth inhibition of the OVCAR-5 human tumor cell line is measured as a screen for anti-cancer activity. Cells are grown in 96 well plates and exposed to the test compound for 48 hours. Compounds are tested at a single concentration, which is 10^-5 M for most compounds. The reported endpoint is percent growth (GI% or GIPRCNT), where numbers from 0 - 100% represent growth inhibition, and numbers from -100% - 0 represent cell death. For example, a value of 40 represents 60% growth inhibition. […]
Compounds without any hit were thinned out: in the full panel of roughly 83,000, 20% have a hit.
Provide the reported growth of each item.
Numeric only. Scale: %

Need growth, item `Cc1cc(-c2ccc(N=Nc3c(C)nn(-c4ccc(S(=O)(=O)O)cc4)c3O)c(C)c2)ccc1N=Nc1ccc(O)c(C(=O)O)c1`
94.4

Next entry: `CSc1nc(N)c(N)c(N)n1`
120

Next entry: `CS(=O)(=O)c1nsc(N)n1`
97.3

Next entry: CC(C)=NOC(C)C(=O)O (stereo not drawn)
101

Next entry: `O=C(O)COc1ccccc1F`
104

Next entry: COc1ccccc1OCC(O)CO (stereo not drawn)
103

Next entry: `Oc1ccc(O)c(-c2ccccc2)c1`
102

Next entry: `N#CC(=S)Nc1ccc(Cl)c(Cl)c1`
11
